Hello, the source for this data is paper PMC12054212, in case you need it.

Molecular target: Metallo-L1 β-lactamase (Stenotrophomonas maltophilia, UniProt B2FTM1)
Sequence (B2FTM1 22-290): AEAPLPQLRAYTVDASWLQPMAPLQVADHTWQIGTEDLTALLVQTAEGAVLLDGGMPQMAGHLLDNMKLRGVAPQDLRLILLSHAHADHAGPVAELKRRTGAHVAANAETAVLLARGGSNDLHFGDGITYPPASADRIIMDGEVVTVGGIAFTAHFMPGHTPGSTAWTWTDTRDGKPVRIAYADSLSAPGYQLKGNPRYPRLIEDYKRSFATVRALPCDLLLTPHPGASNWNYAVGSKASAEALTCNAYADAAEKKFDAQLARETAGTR
Assay: nitrocefin hydrolysis inhibition assay, absorbance at […] nm, positive control
Format: biochemical
pIC50: −log10 of the molar value.
QUANTITY: pIC50

>>> print(df.to_string())
                            item_smiles  result
0  O=C(O)CN(CCN(CC(=O)O)CC(=O)O)CC(=O)O    5.65

====

Target: Metallo-L1 β-lactamase (Stenotrophomonas maltophilia, UniProt B2FTM1)
Assay: nitrocefin hydrolysis inhibition assay, absorbance at […] nm, […] enzyme
Type: biochemical
QUANTITY: IC50 (µM)

>>> df
                                   compound  quantity  result
0  Oc1c2ccccc2cc2cnc3ccccc3c12 [Benzo[j]phenanthridin-12-ol]      IC50      23
